Biological target: Gal6P(b1-4)GlcNAc
Test: glycan array binding signal (z-score within array); higher = stronger binding
Conditions: glycan notation: IUPAC condensed, linker removed
Shown is part of a subset that was picked to be rich in the strongest signals.
Each entry gets Not fulfilled if its glycan array binding signal (z-score) stays under -0.3, and Fulfilled if its glycan array binding signal (z-score) is -0.3 or above.

• Strep tagII-anxA1 (Homo sapiens), P04083 (protein) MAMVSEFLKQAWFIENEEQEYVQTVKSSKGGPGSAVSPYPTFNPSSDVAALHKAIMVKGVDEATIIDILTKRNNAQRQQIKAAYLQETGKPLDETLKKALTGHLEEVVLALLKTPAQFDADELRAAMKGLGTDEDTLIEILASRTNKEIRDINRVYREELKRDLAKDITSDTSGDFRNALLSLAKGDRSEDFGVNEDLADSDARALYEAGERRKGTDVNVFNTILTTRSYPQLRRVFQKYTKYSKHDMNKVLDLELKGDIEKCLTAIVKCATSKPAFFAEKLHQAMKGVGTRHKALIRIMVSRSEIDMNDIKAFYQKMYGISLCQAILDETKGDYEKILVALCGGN = Fulfilled
• Microvirin-2 (Microcystis aeruginosa) (protein) MPNFSHTCSSINYDPDSTILSAECQARDGEWLPTELRLSDHIGNIDGELQFGDQNFQETCQDCHLEFGDGEQSVWLVCTCQTMDGEWKSTQILLDSQIDNNDSQLEIGGSMPNFSHTCSSINYDPDSTILSAECQARDGEWLPTELRLSDHIGNIDGELQFGDQNFQETCQDCHLEFGDGEQSVWLVCTCQTMDGEWKSTQILLDSQIDNNDSQLEIG = Fulfilled
• Si Bti9 1b-V5-his (Solanum lycopersicum) (protein) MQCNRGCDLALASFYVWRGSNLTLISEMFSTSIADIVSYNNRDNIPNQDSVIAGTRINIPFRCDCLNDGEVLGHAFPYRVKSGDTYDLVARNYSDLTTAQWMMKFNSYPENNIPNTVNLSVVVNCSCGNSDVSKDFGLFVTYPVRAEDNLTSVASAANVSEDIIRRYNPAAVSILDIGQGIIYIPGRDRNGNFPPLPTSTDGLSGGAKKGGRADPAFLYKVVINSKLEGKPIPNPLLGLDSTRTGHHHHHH = Not fulfilled
• Gal-9-hFc (Mus musculus), O08573-2 (protein) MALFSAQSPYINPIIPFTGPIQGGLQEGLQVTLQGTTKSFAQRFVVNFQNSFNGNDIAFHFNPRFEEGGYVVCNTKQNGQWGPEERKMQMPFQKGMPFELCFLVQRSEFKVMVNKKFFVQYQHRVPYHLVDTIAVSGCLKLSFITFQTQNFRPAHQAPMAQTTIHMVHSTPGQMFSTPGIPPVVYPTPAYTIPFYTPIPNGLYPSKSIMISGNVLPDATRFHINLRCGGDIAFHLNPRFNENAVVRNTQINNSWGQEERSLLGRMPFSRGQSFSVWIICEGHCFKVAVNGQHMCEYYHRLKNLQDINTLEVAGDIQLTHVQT = Not fulfilled
• Mermaid1 (Stilbonema majum) (protein) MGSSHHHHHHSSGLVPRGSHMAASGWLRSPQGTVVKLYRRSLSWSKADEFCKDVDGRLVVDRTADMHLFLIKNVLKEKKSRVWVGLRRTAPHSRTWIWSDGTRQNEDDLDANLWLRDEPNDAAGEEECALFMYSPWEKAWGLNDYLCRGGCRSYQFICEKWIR = Not fulfilled
